Biological target: human histamine H3 receptor (Homo sapiens, UniProt Q9Y5N1)
Construct: One microgram of supercoiled H3 receptor cDNA was added to the cells and mixed; expressed in transfected cells; membranes
Sequence (Q9Y5N1 whole entry): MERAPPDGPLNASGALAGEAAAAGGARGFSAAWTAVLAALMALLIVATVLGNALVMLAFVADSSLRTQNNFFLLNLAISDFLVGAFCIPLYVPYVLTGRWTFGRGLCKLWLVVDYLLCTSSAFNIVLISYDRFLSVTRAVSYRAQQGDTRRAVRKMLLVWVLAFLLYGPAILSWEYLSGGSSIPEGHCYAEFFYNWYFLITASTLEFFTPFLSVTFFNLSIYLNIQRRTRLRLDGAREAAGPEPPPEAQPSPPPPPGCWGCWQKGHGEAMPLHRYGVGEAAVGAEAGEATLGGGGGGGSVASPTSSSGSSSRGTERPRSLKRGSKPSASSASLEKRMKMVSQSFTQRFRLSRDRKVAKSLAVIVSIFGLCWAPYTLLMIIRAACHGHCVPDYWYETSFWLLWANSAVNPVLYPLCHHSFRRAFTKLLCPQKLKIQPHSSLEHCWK
Assay: [3H]-N-methylhistamine binding
Details: [3H]-N-methylhistamine 0.8 nM, membranes of H3 receptor-expressing SK-N-MC cells
Experimental: Thus in the present invention receptor binding was determined using the human histamine H3 receptor (See Lovenberg et al Mol. Pharmacol. 1999, 1107). […] Conventional binding assays for example are determined using rat synaptosomes (Garbarg et al J. Pharmacol. Exp. Ther. 1992, 263, 304), rat cortical membranes (West et al Mol. Pharmacol. 1990, 610), and guinea pig brain (Korte et al Biochem. Biophys. Res. Commun. 1990, 978). […]
What Ki was measured for each of the following?
Reply with a number, then the unit it belongs to.

Could you share which Ki value was measured for Oc1ccc([C@@H]2CCC[C@@H]3CCCN32)cc1 (racemic) [Example 60, 5-(4-Hydroxyphenyl)octahydroindolizine] ? 1.4 µM

// repeat for OC(c1ccncc1)c1ccc([C@H]2CC[C@H]3CCCCN32)cc1 (stereo partly shown) and report 0.082 µM

Now give it for NC(=NO)c1ccc(Sc2ccc([C@H]3CC[C@H]4CCCCN43)cc2)cc1 (racemic) too. 0.04 µM

Now consider `c1cc(Sc2ccc([C@H]3CC[C@H]4CCCCN43)cc2)ccn1` . 0.0038 µM
